- Tested on: Saccharomyces cerevisiae
- assayMethodText: protein stability index of tFT-peptide fusion (C-terminal peptide) (PSI (0-1 scale)); higher = more stable (slower turnover)
- testSettings: genetic background: cdc53-1; temperature: 37 C
measuredProperty: protein stability index
Respond using a number only.

Problem: State the recorded protein stability index for this entry: `FFVFPFGLLFLS`
Result: 0.515

Problem: How about `FLFQYLCIISSL` ?
Result: 0.166

Problem: And the next one, `TLWWRQPFWGFG` ?
Result: 0.802

----------
- System: Saccharomyces cerevisiae
- assayMethodText: protein stability index of tFT-peptide fusion in deletion strain of DOA10 (PSI (0-1 scale)); higher = more stable (slower turnover)
measuredProperty: protein stability index
Number only, no unit.

[[record]]
querysequence = "YSLRVLLPLYFR"
measuredproperty = "protein stability index"
resultvalue = 0.632

[[record]]
querysequence = "ASLRVLLPLYFR"
measuredproperty = "protein stability index"
resultvalue = 0.666

[[record]]
querysequence = "GLYMPSVGCWFR"
measuredproperty = "protein stability index"
resultvalue = 0.683

[[record]]
querysequence = "RSLRVLLELYFR"
measuredproperty = "protein stability index"
resultvalue = 0.593

[[record]]
querysequence = "CLVSLPILLFFE"
measuredproperty = "protein stability index"
resultvalue = 0.57


Problem: Which protein stability index value is on record for `CLVPLPILLFFR` ?
Result: 0.57

----------
# protein stability index values compiled below
- System: Saccharomyces cerevisiae
- assayMethodText: protein stability index of tFT-peptide fusion (C-terminal peptide) (PSI (0-1 scale)); higher = more stable (slower turnover)
- testSettings: genetic background: wild type; temperature: 30 C
I only need the number, thanks.

// below: answered sequences
[[record]]
querysequence = "FTPSNQSHGNFY [TEC1 C-terminal 12 aa]"
resultvalue = 0.662

[[record]]
querysequence = "KFSSTSRYMQYN [RPT1 C-terminal 12 aa]"
resultvalue = 0.642


Field: next sequence
Problem: Which protein stability index reading was recorded for the sequence KVNGDIYRLPPS [MBA1 C-terminal 12 aa] ?
Result: 0.677

----------
- System: Saccharomyces cerevisiae
- assayMethodText: protein stability index of tFT-peptide fusion in deletion strain of DAS1 (PSI (0-1 scale)); higher = more stable (slower turnover)
measuredProperty: protein stability index
Field format: numeric only.

Before answering, review these 2 worked examples.
[[record]]
querysequence = "VRGAVGGWRRVG"
resultvalue = 0.67

[[record]]
querysequence = "CNSCGYKFRTNN"
resultvalue = 0.702


Problem: Please look up its protein stability index: `KKEKKGQKQKIN`
Result: 0.578

----------
protein stability index for assorted sequences
- System: Saccharomyces cerevisiae
- assayMethodText: protein stability index of tFT-peptide fusion (C-terminal peptide) (PSI (0-1 scale)); higher = more stable (slower turnover)
- testSettings: genetic background: wild type; temperature: 30 C

Problem: Look up protein stability index for this sequence: `SLDRASPPTSVA`
Result: 0.625

----------
- System: Saccharomyces cerevisiae
- assayMethodText: protein stability index of tFT-peptide fusion (C-terminal peptide) (PSI (0-1 scale)); higher = more stable (slower turnover)
- testSettings: genetic background: wild type; temperature: 30 C
measuredProperty: protein stability index
Note: the reply should be a number with no unit written.

Guide cases for protein stability index, answers given:
[[record]]
querysequence = "GILYFPAGHHAG"
resultvalue = 0.627

[[record]]
querysequence = "PFPQVPFPRLAY"
resultvalue = 0.681

[[record]]
querysequence = "ANEAAYICKGNG"
resultvalue = 0.682

[[record]]
querysequence = "WFLVFLRVGDGP"
resultvalue = 0.474

[[record]]
querysequence = "RGRCLGAESRGG"
resultvalue = 0.767


Problem: # returns recorded protein stability index (system: Saccharomyces cerevisiae) for `ITSQLWGVPLPY`
Result: 0.713
